- experimental protocol: growth inhibition of non-replicating M. tuberculosis (AID 488890);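 further: plate controls were DMSO cells for no effect and high antibiotic wells for full effect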
- reported conditions: Mycobacterium tuberculosis non-replicating, at 25 µM, stronger effect = higher value
Out of some 320,000 compounds screened, about 1,300 (0.41%) were called active. Roughly 3% stayed inconclusive and do not appear here. The list is a sample of the results. Measured potencies and affinities stand elsewhere.
Quick reference for inhibition among some compounds
# unit: % | format: bare number

Recorded results for 8 compounds are shown here.
O=C(c1ccco1)N1CCN(S(=O)(=O)c2ccc(Cl)cc2)CC1 = -7.62
C=CCOc1ccc(C2CC(C)=NN2c2ccccc2)cc1 (stereo not drawn) = 35.9
O=C(NCc1ccccc1)C1=C[C@@H](c2csc3ccccc23)C[C@@H](OCCCCO)O1 = -6.19
COC(=O)[C@@]1(Cc2ccc(OC)cc2)[C@H]2c3cc(C(=O)N(C)C)n(CCc4ccc(OC)c(Br)c4)c3C[C@H]2CN1C(=O)c1ccccc1 = 70.8
CCOC(=O)c1csc(NC(=O)c2ccc(OCC)cc2)n1 = 19.8
Cc1cc(C)cc(OCC(=O)N/N=C/c2ccco2)c1 = 9.16
CCOc1ccc(Br)cc1/C=N/NC(=O)c1ccncc1 = 73.7
Cc1ccc(C(=O)N/C(=C\c2cn(C)c3ccccc23)C(=O)OCCN(C)C)cc1 = 1.18

INPUT: // returns reported inhibition for input CC(C)Cc1ccc(CN2CCCC(NC(=O)CCN3CCOCC3)C2)cc1 (stereo not drawn)
OUTPUT: 34.5

INPUT: // returns reported inhibition for input `Nc1nonc1-c1noc(COc2ccccc2Cl)n1`
OUTPUT: 5.72

INPUT: // returns reported inhibition for input `CCCCCC(=O)N/N=C/c1ccc([N+](=O)[O-])o1`
OUTPUT: 73.3

INPUT: // returns reported inhibition for input `CCOC(=O)N/N=C\c1ccc([N+](=O)[O-])o1`
OUTPUT: 59.1

INPUT: // returns reported inhibition for input `COc1ccc(C(=O)NCC(=O)N/N=C/c2ccco2)cc1OC`
OUTPUT: -11.6

INPUT: // returns reported inhibition for input O=C1OC(Oc2ccccc2)(c2ccccc2)c2ccccc21 (stereo not drawn)
OUTPUT: -1.31

INPUT: // returns reported inhibition for input COc1ccc(C(C)C)cc1S(=O)(=O)NCC1CCCO1 (stereo not drawn)
OUTPUT: 16

INPUT: // returns reported inhibition for input `O=C(NCCCn1ccnc1)c1cccc(Br)c1`
OUTPUT: -17.6

INPUT: // returns reported inhibition for input `CCC(CC)NC(=O)COC(=O)c1cc(SC)ccc1Cl`
OUTPUT: 28.5

INPUT: // returns reported inhibition for input `Cc1c2ccccc2nc2c(F)c(NC(C)C)c(F)c(F)c12`
OUTPUT: 25.6

----------
- experimental protocol: growth inhibition of non-replicating M. tuberculosis (AID 488890)
- reported conditions: Mycobacterium tuberculosis non-replicating, at 25 µM, stronger effect = higher value
Out of some 320,000 compounds screened, about 1,300 (0.41%) were called active. Another 3% or so got no clear call; they are omitted. These entries were drawn from the full list. Measured potencies and affinities stand elsewhere.
# cutoff 10% applies to inhibition; >= gives met, < gives not met

Recorded results for 5 compounds are shown here.
CCCCCOC(=O)C1=C(C)Nc2ncnn2C1c1cccs1 (stereo not given) = met
CC(NC(=O)c1ccco1)C(=O)OCC(=O)c1ccc(Cl)s1 (stereo not given) = met
OCCN1CCN(Cc2ccc3ccccc3c2)CC1 = not met
C/C(=N\NC(=O)c1ccco1)c1ccc(C(=O)O)s1 = not met
O=C(CC(Nc1ccc(Cl)cc1)C(=O)O)c1ccccc1 (stereo not given) = met

INPUT: For this compound, is measured inhibition 10% or higher? O=C(CC(Nc1ccccc1)C(=O)O)c1ccccc1 (stereo not given)
OUTPUT: met

INPUT: For this compound, is measured inhibition 10% or higher? `Cc1cccc(OCC(=O)Nc2ccc3nc(C)sc3c2)c1`
OUTPUT: met

INPUT: For this compound, is measured inhibition 10% or higher? `OC1CCN(Cc2ccc3ccccc3c2)CC1`
OUTPUT: met

INPUT: For this compound, is measured inhibition 10% or higher? `CN(C)c1cc[n+](CC(=O)Nc2ccc(Cl)cc2)cc1`
OUTPUT: not met

INPUT: For this compound, is measured inhibition 10% or higher? `COc1ccc(CNC(=O)c2ccc[nH]2)cc1`
OUTPUT: met

----------
- experimental protocol: growth inhibition of non-replicating M. tuberculosis (AID 488890);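 further: plate controls were DMSO cells for no effect and high antibiotic wells for full effect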
- reported conditions: Mycobacterium tuberculosis non-replicating, at 25 µM, stronger effect = higher value
In all, about 320,000 compounds went through this assay and about 1,300 (0.41%) were called active. Another 3% or so got no clear call; they are omitted. Only a sample is shown. Results with a measured potency or affinity are listed apart.
measured endpoint: inhibition

Recorded results for 9 molecules are shown here.
O=C(O)Cc1ccc(Oc2ncc(C(F)(F)F)cc2Cl)cc1 = -16.8%
Cc1ccc(S(=O)(=O)N2CCCC(C(=O)NNCC(=O)Nc3cc(F)ccc3F)C2)cc1 (stereo not given) = 11.7%
CC(=O)Nc1ccc(/C=C/c2ccc3c([N+](=O)[O-])cccc3n2)cc1 = 10.1%
O=C(C1CCCN1S(=O)(=O)c1cccc2nsnc12)N1CCN(c2ccc(F)cc2)CC1 (stereo not given) = -10%
Cc1ccc(SCCC(=O)Nc2ccccc2C(=O)NC2CCCCC2)cc1 = -25.9%
C=CCn1c(=O)c(C(=O)Nc2ncccc2O)c(O)c2ccccc21 = 27.2%
CCn1ccnc1[C@@H]1C[C@H]2CN(Cc3ccccc3OC)C(=O)[C@]23CCCN13 = 29.3%
O=C(Nc1cccnc1)C1OCCc2ccccc21 (stereo not given) = -3.68%
CC(=O)Nc1cccc(NC(=O)c2ccc(Br)cc2)c1 = -8.54%

INPUT: // returns reported inhibition for input `C/C(=N\NC(=O)c1ccc2c(c1)OCO2)c1ccc2c(c1)OCO2`
OUTPUT: 41.2%

----------
- experimental protocol: growth inhibition of non-replicating M. tuberculosis (AID 488890);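 further: plate controls were DMSO cells for no effect and high antibiotic wells for full effect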
- reported conditions: Mycobacterium tuberculosis non-replicating, at 25 µM, stronger effect = higher value
The whole screen tested about 320,000 compounds, of which about 1,300 (0.41%) were called active. About 3% were inconclusive and are not listed. The list is a sample of the results. Results with a measured potency or affinity are listed apart.
Quick reference for inhibition among some compounds
# unit: % | format: bare number

Recorded results for 2 compounds are shown here.
COC(=O)C1=C(C)N(C(C)C)C(=O)C1(NC(=O)C1CCCCC1)C(F)(F)F (centres undefined) = 7.64
CCCC(=O)Nc1ccc(C(=O)N/N=C/c2ccc([N+](=O)[O-])o2)cc1 = 77.6

INPUT: // returns reported inhibition for input CN(C)CCN1C(=O)C2C(C(=O)Nc3cc(Cl)cc(Cl)c3)C3C=CC2(O3)C1C(=O)NC1CCCCC1 (centres undefined)
OUTPUT: 5.38

INPUT: // returns reported inhibition for input `COc1ccc(C(=O)Cn2c(NCCO)nc3ccccc32)cc1`
OUTPUT: -8.13

INPUT: // returns reported inhibition for input `Cc1ccc(S(=O)(=O)N2CCOCC2)cc1C(=O)OCC(=O)N(Cc1ccccc1)C(C)C`
OUTPUT: 0.48

INPUT: // returns reported inhibition for input `Cc1ccc(NC(=O)CCC(=O)N/N=C/c2ccc([N+](=O)[O-])o2)cc1C`
OUTPUT: 8.35

INPUT: // returns reported inhibition for input `O=C(CCc1c[nH]c2ccccc12)NCCc1ccc(Cl)cc1`
OUTPUT: -0.44

INPUT: // returns reported inhibition for input `CCOC(=O)c1sc2nc(C)nc(N3CCN(S(=O)(=O)c4ccccc4)CC3)c2c1C`
OUTPUT: 34.9

INPUT: // returns reported inhibition for input `COc1ccc(N(CN2C(=O)c3ccccc3C2=O)C(=O)C(C)C)cc1`
OUTPUT: 2.08

----------
- experimental protocol: growth inhibition of non-replicating M. tuberculosis (AID 488890);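 further: plate controls were DMSO cells for no effect and high antibiotic wells for full effect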
- reported conditions: Mycobacterium tuberculosis non-replicating, at 25 µM, stronger effect = higher value
Among all 320,000 compounds or so, about 1,300 (0.41%) were called active. Roughly 3% stayed inconclusive and do not appear here. Not all results are given here. Measured potencies and affinities stand elsewhere.
# cutoff 30% applies to inhibition; >= gives rule met, < gives rule not met

INPUT: For this molecule, is measured inhibition 30% or higher? `COc1cc(C[C@@H]2C(=O)OC[C@H]2Cc2ccc(OC)c(OC)c2)ccc1O`
OUTPUT: rule not met

INPUT: For this molecule, is measured inhibition 30% or higher? `CN(Cc1ccccc1)C(=O)c1ccco1`
OUTPUT: rule not met

INPUT: For this molecule, is measured inhibition 30% or higher? `CCOC(=O)c1c(NC(=O)CCN2CCOCC2)sc(C)c1-c1ccccc1`
OUTPUT: rule met

INPUT: For this molecule, is measured inhibition 30% or higher? O=C(c1ccc(N2CC3CC(C2)c2cccc(=O)n2C3)c([N+](=O)[O-])c1)N1CCCC1 (stereo not given)
OUTPUT: rule not met

INPUT: For this molecule, is measured inhibition 30% or higher? `CCOC(=O)c1c(C)c(C)n(Cc2ccc(OC)c(OC)c2)c1C`
OUTPUT: rule not met

The reported numbers originate from PubChem BioAssay AID488890.
